value-type: melting point

Sample records with melting point:
# molecule, melting point
data = [
    ("Cc1cc2c(cc1C(=O)N1CCc3cc(Cl)ccc31)[nH]c(=O)c1nnc(C3CCCC3)n12.Cl", "218 to 220 °C"),
    ("Cc1cc2c(cc1C(=O)N1CCc3cc(F)ccc31)[nH]c(=O)c1c(C)nc(C3CCOCC3)n12", "177 to 180 °C"),
    ("Cc1ccc2c(c1)CCN2C(=O)c1cc2[nH]c(=O)c3c(C)nc(C4CCOCC4)n3c2cc1C.Cl", "264 to 266 °C (dec.)"),
    ("Cc1cc2c(cc1C(=O)N1CCc3cccnc31)[nH]c(=O)c1nnc(C3CCCOC3)n12 (centres unmarked)", "314 °C (dec.)"),
]

Form field melting point, entry Cc1cc2c(cc1C(=O)N1CCN(C)C(c3ccccc3)C1)[nH]c(=O)c1cnc(C3CCCC3)n12 (centres unmarked) : 246 to 248 °C
